Assay: Tanguay_ZF_120hpf_OTIC_legacy: (Legacy) Oregon State University Tanguay Lab 120 Hour Post-fertilization zebrafish Assay for Otic Vesicle Malformation (AID 2283639)
Records with an inconclusive call do not appear. Calls of active or inactive are those of the source. The calls were made as follows: active = hit-call score of the fitted dose curve at least 0.9, where 1 is the maximum; inconclusive = response in the unintended direction; inactive = score below 0.9.
Form entry, call: pick from 1.0 = active, 0.0 = inactive

Solved entries:
| COMPOUND | LABEL |
| --- | --- |
| Cc1cc2c3c(c1)C(c1ccccc1)=N[C@@H](NC(=O)c1ccncc1)C(=O)N3CC2 | 0.0 |
| Clc1ccc(C(c2ccccc2Cl)C(Cl)(Cl)Cl)cc1 (stereo unspecified) | 0.0 |
| N#Cc1ccc(N(CC(N)=O)CC(F)(F)F)cc1C(F)(F)F | 0.0 |
| C1CC2OC2CC1C1CO1 (stereo unspecified) | 0.0 |
| CCC(=O)O[C@H]1CC[C@H]2[C@@H]3CCC4=CC(=O)CC[C@]4(C)[C@H]3CC[C@]12C | 0.0 |
| O=C(NC(=O)c1cc(F)c(F)cc1Cl)Nc1cc(F)ccc1N1CCC(C(=O)O)CC1 | 0.0 |
| Oc1ccc(C(c2ccc(O)cc2)(C(F)(F)F)C(F)(F)F)cc1 | 1.0 |
| O=C(O)C(F)(F)C(F)(F)C(F)(F)C(F)(F)C(F)(F)C(F)(F)C(F)(F)C(F)(F)F | 0.0 |
| CCC(C)(CC)c1cc(NC(=O)c2c(OC)cccc2OC)on1 | 0.0 |
| CCCCCCCCCc1ccc(O)cc1 | 0.0 |

Could you now look at the following compound, please?
Which outcome was assigned to "CO/C=C(/C(=O)OC)c1ccccc1COc1cccc(C(F)(F)F)n1" in this test?
1.0
